- assayTarget: UniProt:P41145
- test: Antagonistic activity against cloned human Opioid receptor kappa 1 using U69,593 as ligand in [35S]GTP-gamma-S, assay
- Type: functional
# maps each entry to its Ke
Form entry: value (nM) — number only.

Example compounds with recorded Ke:
In [3]: df
Out[3]:
                                entrysmiles     assaytarget  assayvalue
0  N=C(N)NCc1ccc2[nH]c3c(c2c1)C[C@@]1(O)[C@H]2Cc4ccc(O)c5c4[C@@]1(CCN2CC1CC1)[C@H]3O5  UniProt:P41145        0.04
1  N/C(=N/Cc1cccc(O)c1)Nc1ccc2[nH]c3c(c2c1)C[C@@]1(O)[C@H]2Cc4ccc(O)c5c4[C@@]1(CCN2CC1CC1)[C@H]3O5  UniProt:P41145        0.13
2  CCCC/N=C(\NCCCC)Nc1ccc2[nH]c3c(c2c1)C[C@@]1(O)[C@H]2Cc4ccc(O)c5c4[C@@]1(CCN2CC1CC1)[C@H]3O5  UniProt:P41145        0.44
3  N/C(=N/Cc1ccccc1)Nc1ccc2[nH]c3c(c2c1)C[C@@]1(O)[C@H]2Cc4ccc(O)c5c4[C@@]1(CCN2CC1CC1)[C@H]3O5  UniProt:P41145        0.06

// next item, Ke requested
*Q* Retrieve Ke measured for `N/C(=N\CCc1ccc2[nH]c3c(c2c1)C[C@@]1(O)[C@H]2Cc4ccc(O)c5c4[C@@]1(CCN2CC1CC1)[C@H]3O5)NCc1ccccc1` and print it.
*A* 0.13

----------
- assayTarget: Delta-type opioid receptor (Homo sapiens, UniProt P41143)
- test: Antagonistic activity against cloned human Opioid receptor delta 1 using DPDPE as ligand in [35S]GTP-gamma-S, assay
- Format: functional
endpointName: Ke (nM)
Form entry: value (nM) — number only.

Example molecules with recorded Ke:
In [3]: df
Out[3]:
                                entrysmiles  assayvalue
0  N/C(=N/Cc1ccc(O)cc1)Nc1ccc2[nH]c3c(c2c1)C[C@@]1(O)[C@H]2Cc4ccc(O)c5c4[C@@]1(CCN2CC1CC1)[C@H]3O5        18.3
1  N/C(=N/Cc1ccc(Cl)cc1)Nc1ccc2[nH]c3c(c2c1)C[C@@]1(O)[C@H]2Cc4ccc(O)c5c4[C@@]1(CCN2CC1CC1)[C@H]3O5        7.67
2  Oc1ccc2c3c1O[C@H]1c4[nH]c5ccc(N/C(=N/CC6CC6)NCc6ccccc6)cc5c4C[C@@]4(O)[C@@H](C2)N(CC2CC2)CC[C@]314        3.28
3  N/C(=N\CCc1ccc2[nH]c3c(c2c1)C[C@@]1(O)[C@H]2Cc4ccc(O)c5c4[C@@]1(CCN2CC1CC1)[C@H]3O5)NCc1ccc([N+](=O)[O-])cc1        1.34

// next item, Ke requested
*Q* Retrieve Ke measured for `N/C(=N/Cc1cccc(O)c1)Nc1ccc2[nH]c3c(c2c1)C[C@@]1(O)[C@H]2Cc4ccc(O)c5c4[C@@]1(CCN2CC1CC1)[C@H]3O5` and print it.
*A* 4.35

----------
- assayTarget: Opioid receptors; delta & kappa (Homo sapiens) (UniProt P41145+P41143)
- Sequence (P41143 whole entry, looked up): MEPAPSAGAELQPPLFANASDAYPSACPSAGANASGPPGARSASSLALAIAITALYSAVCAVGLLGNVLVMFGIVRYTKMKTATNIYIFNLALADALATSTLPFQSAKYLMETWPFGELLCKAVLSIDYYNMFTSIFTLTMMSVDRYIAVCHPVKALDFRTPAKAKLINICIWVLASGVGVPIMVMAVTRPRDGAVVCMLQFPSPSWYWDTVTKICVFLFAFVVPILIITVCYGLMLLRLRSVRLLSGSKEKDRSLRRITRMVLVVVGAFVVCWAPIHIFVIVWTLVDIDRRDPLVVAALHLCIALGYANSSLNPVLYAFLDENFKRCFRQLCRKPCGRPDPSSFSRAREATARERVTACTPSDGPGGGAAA
- Sequence (P41145 whole entry, looked up): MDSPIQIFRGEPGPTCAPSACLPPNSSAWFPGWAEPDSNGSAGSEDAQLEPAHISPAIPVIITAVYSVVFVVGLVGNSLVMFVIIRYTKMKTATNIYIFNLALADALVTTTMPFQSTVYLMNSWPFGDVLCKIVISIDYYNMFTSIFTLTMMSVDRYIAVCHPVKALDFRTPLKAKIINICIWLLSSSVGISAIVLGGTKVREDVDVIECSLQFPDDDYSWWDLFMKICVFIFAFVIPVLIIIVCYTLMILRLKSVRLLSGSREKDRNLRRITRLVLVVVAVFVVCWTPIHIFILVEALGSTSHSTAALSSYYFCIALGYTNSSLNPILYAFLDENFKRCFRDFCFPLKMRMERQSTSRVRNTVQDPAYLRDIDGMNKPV
- test: Ratio of (Ke) delta-opioid receptor to that of (Ke) kappa-opioid receptor
- Type: protein assay
Ratio strictly less than 30 = satisfied. Otherwise not satisfied.

These recorded examples may help you get a feel for the data.
>>> df
                                entrysmiles          label
0  N/C(=N/Cc1ccc(N)cc1)Nc1ccc2[nH]c3c(c2c1)C[C@@]1(O)[C@H]2Cc4ccc(O)c5c4[C@@]1(CCN2CC1CC1)[C@H]3O5  not satisfied
1  CCCC/N=C(\NCCCC)Nc1ccc2[nH]c3c(c2c1)C[C@@]1(O)[C@H]2Cc4ccc(O)c5c4[C@@]1(CCN2CC1CC1)[C@H]3O5      satisfied
2  N/C(=N/Cc1ccccc1)Nc1ccc2[nH]c3c(c2c1)C[C@@]1(O)[C@H]2Cc4ccc(O)c5c4[C@@]1(CCN2CC1CC1)[C@H]3O5  not satisfied
3  N/C(=N/Cc1cccc(O)c1)Nc1ccc2[nH]c3c(c2c1)C[C@@]1(O)[C@H]2Cc4ccc(O)c5c4[C@@]1(CCN2CC1CC1)[C@H]3O5  not satisfied
4  N/C(=N\CCc1ccc2[nH]c3c(c2c1)C[C@@]1(O)[C@H]2Cc4ccc(O)c5c4[C@@]1(CCN2CC1CC1)[C@H]3O5)NCc1ccc(N)cc1      satisfied

*Q* Please check: Ratio for `Oc1ccc2c3c1O[C@H]1c4[nH]c5ccc(N/C(=N/CC6CC6)NCc6ccccc6)cc5c4C[C@@]4(O)[C@@H](C2)N(CC2CC2)CC[C@]314` , strictly under 30 or not?
*A* satisfied

----------
- assayTarget: Opioid receptors; delta & kappa (Homo sapiens) (UniProt P41145+P41143)
- test: Ratio of (Ki) delta-opioid receptor to that of (Ki) kappa-opioid receptor
- Format: protein assay
Returns Y if the recorded Ratio is greater than or equal to 6, and N otherwise.

These recorded examples may help you get a feel for the data.
>>> df
                                entrysmiles                               assaytarget  label
0  N/C(=N\CCc1ccc2[nH]c3c(c2c1)C[C@@]1(O)[C@H]2Cc4ccc(O)c5c4[C@@]1(CCN2CC1CC1)[C@H]3O5)NCc1ccc(Cl)cc1  Opioid receptors; delta & kappa (Homo sapiens) (UniProt P41145+P41143)      Y
1  Oc1ccc2c3c1O[C@H]1c4[nH]c5ccc(N/C(=N/CC6CC6)NCc6ccccc6)cc5c4C[C@@]4(O)[C@@H](C2)N(CC2CC2)CC[C@]314  Opioid receptors; delta & kappa (Homo sapiens) (UniProt P41145+P41143)      N

*Q* Answer whether Ratio of `CCCC/N=C(\NCCCC)Nc1ccc2[nH]c3c(c2c1)C[C@@]1(O)[C@H]2Cc4ccc(O)c5c4[C@@]1(CCN2CC1CC1)[C@H]3O5` is greater than or equal to 6.
*A* N

*Q* Answer whether Ratio of `N/C(=N/Cc1ccc(Cl)cc1)Nc1ccc2[nH]c3c(c2c1)C[C@@]1(O)[C@H]2Cc4ccc(O)c5c4[C@@]1(CCN2CC1CC1)[C@H]3O5` is greater than or equal to 6.
*A* Y

*Q* Answer whether Ratio of `CCCC/N=C(\NCCCC)NCCc1ccc2[nH]c3c(c2c1)C[C@@]1(O)[C@H]2Cc4ccc(O)c5c4[C@@]1(CCN2CC1CC1)[C@H]3O5` is greater than or equal to 6.
*A* N

----------
- assayTarget: Mu-type opioid receptor (Homo sapiens)
- Sequence (P35372 whole entry): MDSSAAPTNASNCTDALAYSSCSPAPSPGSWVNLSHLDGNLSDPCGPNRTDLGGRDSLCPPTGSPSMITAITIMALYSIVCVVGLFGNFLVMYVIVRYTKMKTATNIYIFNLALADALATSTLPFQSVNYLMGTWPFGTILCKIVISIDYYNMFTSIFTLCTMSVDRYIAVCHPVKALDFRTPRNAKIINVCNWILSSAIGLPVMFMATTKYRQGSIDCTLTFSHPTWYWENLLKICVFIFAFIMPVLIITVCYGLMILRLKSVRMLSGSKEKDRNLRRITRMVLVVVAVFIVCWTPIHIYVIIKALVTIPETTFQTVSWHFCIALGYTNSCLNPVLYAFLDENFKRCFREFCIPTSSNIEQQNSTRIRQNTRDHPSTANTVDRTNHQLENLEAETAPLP
endpointName: Ki (nM)
Form entry: value (nM) — number only.

Example compounds with recorded Ki:
                                entrysmiles  assayvalue
0  N/C(=N\CCc1ccc2[nH]c3c(c2c1)C[C@@]1(O)[C@H]2Cc4ccc(O)c5c4[C@@]1(CCN2CC1CC1)[C@H]3O5)NCc1ccccc1        3.54
1  N/C(=N/Cc1ccc([N+](=O)[O-])cc1)Nc1ccc2[nH]c3c(c2c1)C[C@@]1(O)[C@H]2Cc4ccc(O)c5c4[C@@]1(CCN2CC1CC1)[C@H]3O5        26.3
2  CCCN/C(=N\CC1CC1)Nc1ccc2[nH]c3c(c2c1)C[C@@]1(O)[C@H]2Cc4ccc(O)c5c4[C@@]1(CCN2CC1CC1)[C@H]3O5        22.4
3  CCC/N=C(\NCCC)Nc1ccc2[nH]c3c(c2c1)C[C@@]1(O)[C@H]2Cc4ccc(O)c5c4[C@@]1(CCN2CC1CC1)[C@H]3O5        9.83
4  N/C(=N/Cc1ccc(O)cc1)Nc1ccc2[nH]c3c(c2c1)C[C@@]1(O)[C@H]2Cc4ccc(O)c5c4[C@@]1(CCN2CC1CC1)[C@H]3O5        14.7

*Q* Retrieve Ki measured for `N/C(=N/Cc1ccc(Cl)cc1)Nc1ccc2[nH]c3c(c2c1)C[C@@]1(O)[C@H]2Cc4ccc(O)c5c4[C@@]1(CCN2CC1CC1)[C@H]3O5` and print it.
*A* 29.8

*Q* Retrieve Ki measured for `Oc1ccc2c3c1O[C@H]1c4[nH]c5ccc(N/C(=N/CC6CC6)NCc6ccccc6)cc5c4C[C@@]4(O)[C@@H](C2)N(CC2CC2)CC[C@]314` and print it.
*A* 17.7

*Q* Retrieve Ki measured for `CCCC/N=C(\NCCCC)NCCc1ccc2[nH]c3c(c2c1)C[C@@]1(O)[C@H]2Cc4ccc(O)c5c4[C@@]1(CCN2CC1CC1)[C@H]3O5` and print it.
*A* 7.89

*Q* Retrieve Ki measured for `N/C(=N/Cc1cccc(O)c1)Nc1ccc2[nH]c3c(c2c1)C[C@@]1(O)[C@H]2Cc4ccc(O)c5c4[C@@]1(CCN2CC1CC1)[C@H]3O5` and print it.
*A* 14.2
